Test system: EKVX NSCLC
assay-details: NCI tumour cell line growth inhibition, 48 h
recorded-metric: TGI

Problem: Fill blank: measured TGI of the molecule Cc1nc(Nc2cccnc2)sc1C(=O)/C=C/c1ccc(Cl)cc1 is ____.
Solution: > 100 µM

Problem: Item: CC(C)(C)C(=CS(=O)/N=C/c1ccccc1)C(C)(C)C (stereo not given)
Solution: > 100 µM

Problem: For CCN(CC)C(=S)SS(=O)(=O)c1cccc(N)c1 then?
Solution: > 100 µM

Problem: Another molecule to check: c1ccc(/C(=N/Nc2ccncn2)c2ccccn2)cc1
Solution: 50.3 µM

###

Test system: MOLT-4 leukemia
assay-details: NCI tumour cell line growth inhibition, 48 h
Each entry gets false (0) if its TGI stays under 40 µM, and true (1) if its TGI is 40 µM or above.

A selection of reference data follows.
C[Si](C)(C)/C=C\CCO | true (1)
O=C(N/N=C/C=C/c1ccccc1)c1ccccc1Nc1ccccc1C(=O)N/N=C/C=C/c1ccccc1 | true (1)

Problem: Check if TGI >= 40 µM (inclusive). Item: CCN(c1cc(-c2ccc(CN3CCOCC3)cc2)cc(C(=O)NCc2c(C)cc(C)[nH]c2=O)c1C)C1CCOCC1
Solution: true (1)

Problem: Also, CCCCCCCCNCCC[C@@H](C)[C@H]1CC[C@H]2[C@@H]3[C@H](OCCCN)C[C@H]4C[C@H](OCCCN)CC[C@]4(C)[C@H]3C[C@H](OCCCN)[C@]12C please.
Solution: false (0)

Problem: Now give it for c1cncc(CNCc2cccnc2)c1 too.
Solution: true (1)

Problem: Next entry: Cc1c(C(=O)OCc2ccccc2)[n+](=O)c2cc(Cl)c(Cl)cc2n1[O-]
Solution: false (0)

Problem: Field entry: C#Cc1nc2ccccc2c(=O)[nH]1
Solution: false (0)

Problem: // next record CC(C)=CCNc1nc(Cl)nc2nc[nH]c12
Solution: true (1)

Problem: Please give the result for CN=C(/N=c1\ssc(=NC)n1C)N(C)C too.
Solution: true (1)

###

Tested on: SR leukemia
assay-details: NCI tumour cell line growth inhibition, 48 h; in the data active = GI50 below about 0.43 µM; inactive = the rest
Return exactly one item of true (active), false (inactive)

Example results:
Cn1cc(-c2ccc3nnc(Sc4ccc5ncccc5c4)n3n2)cn1 | false
Cc1cc(O)c(C2=NN(c3ccc(S(N)(=O)=O)cc3)C(c3ccc(Cl)cc3)C2)c(C)c1Cl (stereo not drawn) | false
COc1cc(NC(=O)CCSc2nc3ccc(C)cc3c(=O)n2Cc2ccccc2)cc(OC)c1OC | false
O=C(Oc1ccc(CO[N+](=O)[O-])cc1)c1ccccc1 | true
Cc1c2cc(Cl)c3ccccc3c2c[n+]2ccccc12 | false
Cc1c(-c2ccnc(N)n2)c2c(n1Cc1ccccc1)C(=O)c1ccccc1C2=O | false
C1=C2CCCC3=Cc4ccccc4OC23Oc2ccccc21 | false

Problem: What call does the record list for Cc1nc2ccc(NC(=O)CCNC(=O)CCCc3ccc(CC(C(=O)O)C(=O)O)cc3)cc2s1 ?
Solution: false

###

Entries and their measured TGI follow.
Tested on: UACC-62 melanoma
assay-details: NCI tumour cell line growth inhibition, 48 h

C[Si](C)(C)/C=C\CCO | > 100 µM
O=C(c1cccs1)N1CCN(C(=O)c2cccs2)C1=S | 16.6 µM

Problem: Entry CCCCCCCCNCCC[C@@H](C)[C@H]1CC[C@H]2[C@@H]3[C@H](OCCCN)C[C@H]4C[C@H](OCCCN)CC[C@]4(C)[C@H]3C[C@H](OCCCN)[C@]12C has what TGI?
Solution: 3.84 µM

Problem: Further, for O=C1CC(c2[nH]nc3ccccc23)C(=O)N1c1ccccc1 (centres undefined) ?
Solution: > 100 µM

Problem: Do the same for Cc1cccc(C)c1NC(=O)CCc1nc(=S)[nH][nH]1 please
Solution: > 100 µM
